As an illustration, consider measured IC50 for compounds on FPPS (Farnesyl pyrophosphate synthase) (Homo sapiens, UniProt P14324).
Sequence (P14324 67-419): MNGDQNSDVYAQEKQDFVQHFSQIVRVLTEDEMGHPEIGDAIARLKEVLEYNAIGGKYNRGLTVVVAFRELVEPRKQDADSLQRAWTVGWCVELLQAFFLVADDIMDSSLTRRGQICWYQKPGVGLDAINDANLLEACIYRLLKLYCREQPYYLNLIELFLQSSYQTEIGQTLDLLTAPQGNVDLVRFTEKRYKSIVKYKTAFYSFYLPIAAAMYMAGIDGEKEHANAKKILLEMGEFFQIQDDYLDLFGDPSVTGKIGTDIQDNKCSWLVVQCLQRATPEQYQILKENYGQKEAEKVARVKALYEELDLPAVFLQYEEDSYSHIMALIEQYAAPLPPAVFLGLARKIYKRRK
Structures can show the parent of a compound that is named as a salt.
Output should be the measured figure followed by the unit it is expressed in.

Here are 6 compounds together with their reported answers.
compound="O=C(O)c1ccc2cc(-c3cccs3)cc(-c3cccc4ccccc34)c2n1 [Example 35, lithium salt]" result="0.311 µM"
compound="O=P(O)(O)c1ccc2cc(-c3ccco3)cc(-c3cccc4ccccc34)c2n1 [Example 27d.ii]" result="0.9 µM"
compound="O=P(O)(O)c1ccc2cc(-c3cccc(O)c3)cc(-c3cccc4ccccc34)c2n1 [Example 28]" result="0.606 µM"
compound="O=C(O)c1ccc2cc(I)cc(-c3cccc4ccccc34)c2n1 [Example 32, lithium salt]" result="0.16 µM"
compound="O=P(O)(O)c1ccc2cc(-c3ccc4c(c3)OCO4)cc(-c3cccc4ccccc34)c2n1 [Example 27f.ii]" result="0.977 µM"
compound="CCOC(=O)Nc1cc(-c2cccc3ccccc23)c2nc(-c3nn[nH]n3)ccc2c1 [Example 50]" result="0.019 µM"

Answer for every listed entry: what is its IC50? The entries follow.
1. COC(=O)Nc1cc(-c2cccc3ccccc23)c2nc(/C=C/P(=O)(O)O)ccc2c1 [Example 44]
2. O=[N+]([O-])c1cc(-c2cccc3ccccc23)c2nc(/C=C/P(=O)(O)O)ccc2c1 [Example 43]
3. CC(=O)Nc1cc(-c2cccc3ccccc23)c2nc(/C=C/P(=O)(O)O)ccc2c1 [Example 45]

Output:
1. 0.014 µM
2. 0.103 µM
3. 0.026 µM
